# assay.target: HDAC1 (Homo sapiens)
# Construct: purchased BPS Biosciences (San Diego, Calif.)
# Sequence (Q13547 whole entry): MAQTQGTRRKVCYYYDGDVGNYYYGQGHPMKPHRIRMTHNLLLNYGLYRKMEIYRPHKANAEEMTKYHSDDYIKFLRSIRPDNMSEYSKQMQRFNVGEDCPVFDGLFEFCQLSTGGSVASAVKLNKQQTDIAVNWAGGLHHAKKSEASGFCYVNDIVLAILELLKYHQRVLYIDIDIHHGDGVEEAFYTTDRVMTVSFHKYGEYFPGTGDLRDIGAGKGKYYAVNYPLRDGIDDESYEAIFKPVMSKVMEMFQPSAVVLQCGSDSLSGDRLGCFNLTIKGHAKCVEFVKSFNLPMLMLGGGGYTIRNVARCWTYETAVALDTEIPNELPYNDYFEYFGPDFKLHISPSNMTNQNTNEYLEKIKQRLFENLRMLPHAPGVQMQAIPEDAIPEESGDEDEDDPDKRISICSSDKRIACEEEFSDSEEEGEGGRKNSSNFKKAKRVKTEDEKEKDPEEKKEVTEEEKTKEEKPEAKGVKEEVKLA
# measurement.description: RapidFire Mass Spec assay of HDAC1 deacetylase activity with acetylated peptide substrates
# Type: biochemical
# condition.description: FIG. 4; read-out: EC50 for HDAC1 activation (selectivity experiment)
quantity.name: EC50 (nM)

> print(dat)
                                   molecule          assay.target  quantity.name  reported.value
1  O=C(c1cc(O)c(O)c(O)c1)c1ccc(O)c(O)c1O [exifone]  HDAC1 (Homo sapiens)           EC50              20
